# TESTED_ON: human metabotropic glutamate receptor mGluR5 (Homo sapiens)
# Construct: expressed in transfected cells; host or cells: CHO-K1 (h5CHO), IPTG-inducible
# Sequence (P41594 21-1212): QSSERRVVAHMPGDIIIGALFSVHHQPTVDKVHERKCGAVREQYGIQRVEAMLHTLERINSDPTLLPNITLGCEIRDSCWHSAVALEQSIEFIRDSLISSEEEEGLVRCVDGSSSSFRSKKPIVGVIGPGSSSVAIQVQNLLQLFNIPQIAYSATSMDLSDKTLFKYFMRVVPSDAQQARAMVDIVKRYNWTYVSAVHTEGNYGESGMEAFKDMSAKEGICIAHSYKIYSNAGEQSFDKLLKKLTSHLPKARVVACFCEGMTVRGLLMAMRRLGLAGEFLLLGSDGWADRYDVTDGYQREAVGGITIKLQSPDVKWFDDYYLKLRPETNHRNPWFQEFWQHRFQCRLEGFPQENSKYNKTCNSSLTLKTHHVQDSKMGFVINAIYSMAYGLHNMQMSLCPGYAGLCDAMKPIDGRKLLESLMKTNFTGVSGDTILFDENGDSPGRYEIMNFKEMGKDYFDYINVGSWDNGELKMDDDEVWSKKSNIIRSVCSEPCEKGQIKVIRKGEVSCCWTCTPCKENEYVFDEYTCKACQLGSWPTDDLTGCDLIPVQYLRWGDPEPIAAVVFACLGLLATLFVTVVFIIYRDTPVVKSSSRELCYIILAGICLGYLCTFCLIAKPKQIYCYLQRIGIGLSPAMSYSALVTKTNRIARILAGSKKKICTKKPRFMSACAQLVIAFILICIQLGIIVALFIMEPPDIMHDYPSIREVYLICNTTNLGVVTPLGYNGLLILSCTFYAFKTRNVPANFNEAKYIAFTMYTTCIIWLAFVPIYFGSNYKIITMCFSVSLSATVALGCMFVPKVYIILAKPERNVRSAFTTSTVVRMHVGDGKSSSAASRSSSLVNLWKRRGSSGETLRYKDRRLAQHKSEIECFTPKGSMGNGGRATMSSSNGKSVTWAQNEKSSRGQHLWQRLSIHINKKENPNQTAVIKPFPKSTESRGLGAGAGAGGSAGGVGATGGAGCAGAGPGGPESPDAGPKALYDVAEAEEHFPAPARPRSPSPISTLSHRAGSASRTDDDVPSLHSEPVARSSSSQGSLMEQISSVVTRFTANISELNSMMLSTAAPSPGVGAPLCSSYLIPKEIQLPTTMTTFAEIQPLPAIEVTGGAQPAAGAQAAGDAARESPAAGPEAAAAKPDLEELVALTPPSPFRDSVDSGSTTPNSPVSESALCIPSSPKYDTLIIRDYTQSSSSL
# METHOD_DESCRIPTION: Cytosolic calcium studies with stably transfected cells (h5CHO), functional assay of mGluR5 receptors
# Assay type: cell-based
# CONDITION_SET: Table A1; left shift of agonist EC50, dose response curves in the presence of 10 µM modulator or vehicle; h5CHO cells
Kindly supply the reported h left shift values for the records listed here.

Write down the reported h left shift (system: human metabotropic glutamate receptor mGluR5 (Homo sapiens)) of O=C1OC2(CCCc3ncc(C#Cc4ccccc4)cc32)CN1C1CC1 (racemic) [Example 74]
1.6-fold

Write down the reported h left shift (system: human metabotropic glutamate receptor mGluR5 (Homo sapiens)) of CCCN1CC2(CCCc3ncc(C#Cc4ccccc4)cc32)OC1=O (racemic) [Example 82]
1.9-fold

Write down the reported h left shift (system: human metabotropic glutamate receptor mGluR5 (Homo sapiens)) of CCOC(=O)C(=O)N1CCc2ncc(C#Cc3ccccc3)cc2C1 [Example 77]
2.8-fold

Write down the reported h left shift (system: human metabotropic glutamate receptor mGluR5 (Homo sapiens)) of O=S(=O)(C1CC1)N1CCc2ncc(C#Cc3ccccc3)cc2C1 [Example 38]
1.7-fold

Write down the reported h left shift (system: human metabotropic glutamate receptor mGluR5 (Homo sapiens)) of CN1CC2(CCCc3ncc(C#Cc4ccccc4)cc32)OC1=O (racemic) [Example 11]
1.8-fold

Write down the reported h left shift (system: human metabotropic glutamate receptor mGluR5 (Homo sapiens)) of COC(=O)N1CCO[C@@H]2c3cc(C#Cc4ccccc4)cnc3CC[C@@H]21 (racemic) [Example 26]
2.9-fold

Write down the reported h left shift (system: human metabotropic glutamate receptor mGluR5 (Homo sapiens)) of O=C(Oc1ccccc1)N1CCc2ncc(C#Cc3ccccc3)cc2C1 [Example 43]
2.4-fold

Write down the reported h left shift (system: human metabotropic glutamate receptor mGluR5 (Homo sapiens)) of COC(=O)N1C[C@H]2Cc3cc(C#Cc4cccc(F)c4)cnc3[C@H]2C1 (racemic) [Example 73]
2.7-fold

Write down the reported h left shift (system: human metabotropic glutamate receptor mGluR5 (Homo sapiens)) of CN(C)S(=O)(=O)N1CCc2ncc(C#Cc3ccccc3)cc2C1 [Example 52]
2.0-fold

Write down the reported h left shift (system: human metabotropic glutamate receptor mGluR5 (Homo sapiens)) of CCCN1CCO[C@@H]2c3cc(C#Cc4ccc(F)cc4)cnc3CC[C@@H]21 (racemic) [Example 20]
1.8-fold

Write down the reported h left shift (system: human metabotropic glutamate receptor mGluR5 (Homo sapiens)) of CC1(C(=O)N2CCc3ncc(C#Cc4ccccc4)cc3C2)COC1 [Example 36]
2.4-fold

Write down the reported h left shift (system: human metabotropic glutamate receptor mGluR5 (Homo sapiens)) of O=S(=O)(N1CCCCCC1)N1CCc2ncc(C#Cc3ccccc3)cc2C1 [Example 56]
3.0-fold

Write down the reported h left shift (system: human metabotropic glutamate receptor mGluR5 (Homo sapiens)) of CCN1CCO[C@@H]2c3cc(C#Cc4ccccc4)cnc3CC[C@@H]21 (racemic) [Example 14]
2.2-fold

Write down the reported h left shift (system: human metabotropic glutamate receptor mGluR5 (Homo sapiens)) of COC(=O)N1CC2Cc3cc(C#Cc4ccccc4)cnc3C2C1 (racemic) [Example 79]
2.6-fold

Write down the reported h left shift (system: human metabotropic glutamate receptor mGluR5 (Homo sapiens)) of CC(C)(C)[S+]([O-])N1CCc2ncc(C#Cc3ccccc3)cc2C1 (racemic) [Example 37]
2.5-fold

Write down the reported h left shift (system: human metabotropic glutamate receptor mGluR5 (Homo sapiens)) of COC1CCCc2ncc(C#Cc3ccccc3)cc21 (single isomer, unassigned) [Example 2]
2.3-fold

Write down the reported h left shift (system: human metabotropic glutamate receptor mGluR5 (Homo sapiens)) of Cn1ncc2c1-c1cc(C#Cc3ccccc3)cnc1CC2 [Example 28]
2.4-fold

Write down the reported h left shift (system: human metabotropic glutamate receptor mGluR5 (Homo sapiens)) of CCCN1CCO[C@@H]2c3cc(C#Cc4ccccc4)cnc3CC[C@@H]21 (single isomer, unassigned) [Example 16]
3.8-fold

Write down the reported h left shift (system: human metabotropic glutamate receptor mGluR5 (Homo sapiens)) of CC(C)(C)OC(=O)N1CCc2ncc(C#Cc3ccccc3)cc2C1 [Example 42]
3.1-fold

Write down the reported h left shift (system: human metabotropic glutamate receptor mGluR5 (Homo sapiens)) of FC(F)(F)CN1CCO[C@@H]2c3cc(C#Cc4ccccc4)cnc3CC[C@@H]21 (racemic) [Example 24]
2.1-fold

Write down the reported h left shift (system: human metabotropic glutamate receptor mGluR5 (Homo sapiens)) of CN(C)C(=O)N1CCO[C@@H]2c3cc(C#Cc4ccccc4)cnc3CC[C@@H]21 (racemic) [Example 27]
2.4-fold

Write down the reported h left shift (system: human metabotropic glutamate receptor mGluR5 (Homo sapiens)) of COC(=O)N1C2CCC1c1cc(C#Cc3ccccc3)cnc1C2 (racemic) [Example 58]
2.3-fold

Write down the reported h left shift (system: human metabotropic glutamate receptor mGluR5 (Homo sapiens)) of O=S(=O)(N1CCCC1)N1CCc2ncc(C#Cc3ccccc3)cc2C1 [Example 53]
1.6-fold

Write down the reported h left shift (system: human metabotropic glutamate receptor mGluR5 (Homo sapiens)) of O=C1OC2(CCCc3ncc(C#Cc4cccc(F)c4)cc32)CN1c1ccccc1 (racemic) [Example 67]
2.1-fold

Write down the reported h left shift (system: human metabotropic glutamate receptor mGluR5 (Homo sapiens)) of O=S(=O)(N1CCCCC1)N1CCc2ncc(C#Cc3ccccc3)cc2C1 [Example 54]
2.0-fold

Write down the reported h left shift (system: human metabotropic glutamate receptor mGluR5 (Homo sapiens)) of COC(=O)N1C2CCC1c1cc(C#Cc3cccc(F)c3)cnc1C2 (racemic) [Example 59]
1.8-fold

Write down the reported h left shift (system: human metabotropic glutamate receptor mGluR5 (Homo sapiens)) of FC(F)(F)CCN1CCO[C@@H]2c3cc(C#Cc4ccccc4)cnc3CC[C@@H]21 (racemic) [Example 25]
2.0-fold

Write down the reported h left shift (system: human metabotropic glutamate receptor mGluR5 (Homo sapiens)) of COC(=O)N1CC2CCc3ncc(C#Cc4ccccc4)cc3C2C1 (centres unmarked) [Example 30]
2.5-fold

Write down the reported h left shift (system: human metabotropic glutamate receptor mGluR5 (Homo sapiens)) of CC(C)COC(=O)N1CCc2ncc(C#Cc3ccccc3)cc2C1 [Example 41]
2.2-fold

Write down the reported h left shift (system: human metabotropic glutamate receptor mGluR5 (Homo sapiens)) of CN1CCN(S(=O)(=O)N2CCc3ncc(C#Cc4ccccc4)cc3C2)CC1 [Example 78]
1.7-fold

Write down the reported h left shift (system: human metabotropic glutamate receptor mGluR5 (Homo sapiens)) of O=C1NCC2(CCCc3ncc(C#Cc4ccccc4)cc32)O1 (racemic) [Example 10]
1.8-fold

Write down the reported h left shift (system: human metabotropic glutamate receptor mGluR5 (Homo sapiens)) of CCCN1CCO[C@H]2c3cc(C#Cc4ccccc4)cnc3CC[C@@H]21 (racemic) [Example 22]
2.2-fold

Write down the reported h left shift (system: human metabotropic glutamate receptor mGluR5 (Homo sapiens)) of CC1(C)c2cc(C#Cc3ccccc3)cnc2CCS1(=O)=O [Example 75]
1.6-fold

Write down the reported h left shift (system: human metabotropic glutamate receptor mGluR5 (Homo sapiens)) of CCCN1CCO[C@@H]2c3cc(C#Cc4ccccc4)cnc3CC[C@@H]21 (single isomer, unassigned) [Example 17]
2.3-fold

Write down the reported h left shift (system: human metabotropic glutamate receptor mGluR5 (Homo sapiens)) of O=C(N1CCCCC1)N1CCc2ncc(C#Cc3ccccc3)cc2C1 [Example 50]
2.1-fold

Values from patent EP2650284A1
